Target: Recombinant wild type LRRK2 protein (Homo sapiens (Human), UniProt Q5S007)
Sequence (Q5S007 whole entry): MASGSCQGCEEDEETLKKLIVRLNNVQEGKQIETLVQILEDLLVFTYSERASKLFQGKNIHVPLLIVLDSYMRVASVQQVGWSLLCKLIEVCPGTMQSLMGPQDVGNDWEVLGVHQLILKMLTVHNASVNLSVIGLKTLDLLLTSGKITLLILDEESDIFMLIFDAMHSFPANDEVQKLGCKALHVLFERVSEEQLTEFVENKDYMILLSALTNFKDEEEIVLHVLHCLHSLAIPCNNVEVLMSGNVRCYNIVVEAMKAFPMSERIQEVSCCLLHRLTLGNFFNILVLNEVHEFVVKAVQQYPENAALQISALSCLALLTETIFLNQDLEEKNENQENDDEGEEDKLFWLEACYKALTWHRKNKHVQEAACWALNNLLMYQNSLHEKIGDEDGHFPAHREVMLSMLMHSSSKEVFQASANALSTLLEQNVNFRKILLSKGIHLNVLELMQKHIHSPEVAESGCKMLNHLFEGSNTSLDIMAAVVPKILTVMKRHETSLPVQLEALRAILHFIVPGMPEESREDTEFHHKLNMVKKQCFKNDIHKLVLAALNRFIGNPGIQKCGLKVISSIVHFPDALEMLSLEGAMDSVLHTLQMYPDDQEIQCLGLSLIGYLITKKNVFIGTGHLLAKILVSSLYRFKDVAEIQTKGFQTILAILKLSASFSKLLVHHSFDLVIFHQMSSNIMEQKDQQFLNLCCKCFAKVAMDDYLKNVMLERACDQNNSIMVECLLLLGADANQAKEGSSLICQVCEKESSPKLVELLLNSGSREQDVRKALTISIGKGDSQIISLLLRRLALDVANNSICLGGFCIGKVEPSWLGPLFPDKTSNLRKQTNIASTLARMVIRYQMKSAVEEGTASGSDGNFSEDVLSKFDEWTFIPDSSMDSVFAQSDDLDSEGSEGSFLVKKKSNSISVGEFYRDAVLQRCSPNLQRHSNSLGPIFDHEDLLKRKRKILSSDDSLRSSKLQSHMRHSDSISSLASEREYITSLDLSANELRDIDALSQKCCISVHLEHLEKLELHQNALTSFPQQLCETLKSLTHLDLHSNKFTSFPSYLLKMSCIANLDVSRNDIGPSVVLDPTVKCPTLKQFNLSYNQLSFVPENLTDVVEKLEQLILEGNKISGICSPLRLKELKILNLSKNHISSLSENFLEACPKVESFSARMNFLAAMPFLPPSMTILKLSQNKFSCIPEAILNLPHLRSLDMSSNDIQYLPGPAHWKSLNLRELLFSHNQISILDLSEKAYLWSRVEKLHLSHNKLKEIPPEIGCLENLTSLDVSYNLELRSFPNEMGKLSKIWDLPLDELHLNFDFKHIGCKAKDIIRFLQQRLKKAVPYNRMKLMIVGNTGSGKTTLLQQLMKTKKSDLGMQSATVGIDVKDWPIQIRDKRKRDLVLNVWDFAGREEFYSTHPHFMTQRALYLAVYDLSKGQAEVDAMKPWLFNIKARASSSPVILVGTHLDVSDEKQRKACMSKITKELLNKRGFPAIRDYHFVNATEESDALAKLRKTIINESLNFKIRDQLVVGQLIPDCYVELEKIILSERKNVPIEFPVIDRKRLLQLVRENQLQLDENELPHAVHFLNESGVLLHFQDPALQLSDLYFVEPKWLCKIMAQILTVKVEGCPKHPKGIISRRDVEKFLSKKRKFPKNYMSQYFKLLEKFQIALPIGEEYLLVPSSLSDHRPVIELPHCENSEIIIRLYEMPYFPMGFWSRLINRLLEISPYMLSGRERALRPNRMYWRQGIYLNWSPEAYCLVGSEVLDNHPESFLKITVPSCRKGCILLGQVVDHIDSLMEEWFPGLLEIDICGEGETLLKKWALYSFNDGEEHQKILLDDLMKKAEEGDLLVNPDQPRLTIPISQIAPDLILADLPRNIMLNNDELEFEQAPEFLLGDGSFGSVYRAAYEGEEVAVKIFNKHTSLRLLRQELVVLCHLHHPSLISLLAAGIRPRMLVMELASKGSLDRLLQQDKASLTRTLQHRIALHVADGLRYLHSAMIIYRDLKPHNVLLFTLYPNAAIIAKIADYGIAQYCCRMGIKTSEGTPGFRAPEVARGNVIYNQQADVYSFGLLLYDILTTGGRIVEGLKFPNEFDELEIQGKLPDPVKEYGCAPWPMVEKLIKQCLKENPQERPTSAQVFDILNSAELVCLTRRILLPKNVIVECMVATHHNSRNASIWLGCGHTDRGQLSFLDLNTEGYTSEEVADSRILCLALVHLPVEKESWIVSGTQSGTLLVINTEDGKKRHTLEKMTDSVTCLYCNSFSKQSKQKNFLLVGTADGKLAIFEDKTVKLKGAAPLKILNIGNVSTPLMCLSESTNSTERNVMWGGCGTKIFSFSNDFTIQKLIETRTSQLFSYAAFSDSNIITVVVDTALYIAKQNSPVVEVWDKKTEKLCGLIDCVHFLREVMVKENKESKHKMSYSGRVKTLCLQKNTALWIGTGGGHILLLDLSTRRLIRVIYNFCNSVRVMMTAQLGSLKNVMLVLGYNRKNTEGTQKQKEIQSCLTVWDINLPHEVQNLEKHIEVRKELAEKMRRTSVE
Experiment: LRRK2 kinase activity, LanthaScreen TR-FRET assay (wild type)
Conditions: LRRKtide 400 nM, 25 μM ATP, 60 min; read-out: LRRK2 WT IC50
Parameter: IC50

Sample answers from the record:
Cc1cc(-c2n[nH]c3ccc(NC(=O)c4ncc(C#N)c(C)c4C)cc23)on1 = < 100 nM
Cc1cc(C#N)cnc1C(=O)Nc1ccc2[nH]nc(-c3cnn(C)c3C)c2c1 = 100 to 1000 nM
Cc1cc(C#N)ncc1C(=O)Nc1ccc2[nH]nc(-c3ccoc3)c2c1 = 100 to 1000 nM
N#Cc1cccc(C(=O)Nc2ccc3[nH]nc(-c4ccoc4)c3c2)c1C(F)(F)F = < 100 nM
N#Cc1cc(C(=O)Nc2ccc3[nH]nc(-c4ccoc4)c3c2)ns1 = < 100 nM

Input line: Would you mind telling me what IC50 value was observed for `Cc1cc(C(=O)Nc2ccc3[nH]nc(-c4ccoc4)c3c2)nc(C)c1C#N` ?
Output line: 1000 to 10000 nM

Input line: I have this compound here, `COCc1n[nH]c2ccc(NC(=O)c3ncc(C#N)c(C)c3C)cc12` , and I need its recorded IC50.
Output line: 1000 to 10000 nM

Input line: Bench note: what IC50 did `COc1cc(-c2n[nH]c3ccc(NC(=O)c4c(C)c(C#N)nn4C)cc23)ccn1` show?
Output line: 100 to 1000 nM
